Settings: in n-propanol, 303.15 K
reportedProperty: solubility (mole fraction)

Exercise: Complete the entry with solubility (mole fraction) for `Cc1n[nH]c(=S)s1`
Solution: 0.0206

###

Conditions: in n-pentyl acetate, 323.15 K
reportedProperty: solubility (mole fraction)
Provide a numeric answer; units are not to be included.

Exercise: Complete the entry with solubility (mole fraction) for `Cc1n[nH]c(=S)s1`
Solution: 0.0334

###

Details: in methyl acetate, 293.15 K
reportedProperty: solubility (mole fraction)
Provide a numeric answer; units are not to be included.

Exercise: Complete the entry with solubility (mole fraction) for `Cc1n[nH]c(=S)s1`
Solution: 0.021

###

Settings: in n-butyl acetate, 303.15 K
reportedProperty: solubility (mole fraction)
Provide a numeric answer; units are not to be included.

Exercise: Complete the entry with solubility (mole fraction) for `Cc1n[nH]c(=S)s1`
Solution: 0.022

###

Conditions: in n-butyl acetate, 298.15 K
reportedProperty: solubility (mole fraction)

Exercise: Complete the entry with solubility (mole fraction) for `Cc1n[nH]c(=S)s1`
Solution: 0.0194

###

Conditions: in ethyl acetate, 318.15 K
reportedProperty: solubility (mole fraction)

Exercise: Complete the entry with solubility (mole fraction) for `Cc1n[nH]c(=S)s1`
Solution: 0.0338

###

Details: in isopropanol, 293.15 K
reportedProperty: solubility (mole fraction)
Provide a numeric answer; units are not to be included.

Exercise: Complete the entry with solubility (mole fraction) for `Cc1n[nH]c(=S)s1`
Solution: 0.0115

###

Conditions: in methyl acetate, 298.15 K
reportedProperty: solubility (mole fraction)

Exercise: Complete the entry with solubility (mole fraction) for `Cc1n[nH]c(=S)s1`
Solution: 0.0234

###

Conditions: in n-butanol, 313.15 K
reportedProperty: solubility (mole fraction)
Provide a numeric answer; units are not to be included.

Exercise: Complete the entry with solubility (mole fraction) for `Cc1n[nH]c(=S)s1`
Solution: 0.0239

###

Details: in n-pentyl acetate, 288.15 K
reportedProperty: solubility (mole fraction)
Provide a numeric answer; units are not to be included.

Exercise: Complete the entry with solubility (mole fraction) for `Cc1n[nH]c(=S)s1`
Solution: 0.0137

###

Conditions: in n-propanol, 323.15 K
reportedProperty: solubility (mole fraction)

Exercise: Complete the entry with solubility (mole fraction) for `Cc1n[nH]c(=S)s1`
Solution: 0.0389

###

Conditions: in n-propanol, 283.15 K
reportedProperty: solubility (mole fraction)
Provide a numeric answer; units are not to be included.

Exercise: Complete the entry with solubility (mole fraction) for `Cc1n[nH]c(=S)s1`
Solution: 0.0097

###

Details: in n-butanol, 318.15 K
reportedProperty: solubility (mole fraction)

Exercise: Complete the entry with solubility (mole fraction) for `Cc1n[nH]c(=S)s1`
Solution: 0.0287

###

Conditions: in isopropanol, 288.15 K
reportedProperty: solubility (mole fraction)
Provide a numeric answer; units are not to be included.

Exercise: Complete the entry with solubility (mole fraction) for `Cc1n[nH]c(=S)s1`
Solution: 0.00943

###

Conditions: in n-butanol, 308.15 K
reportedProperty: solubility (mole fraction)

Exercise: Complete the entry with solubility (mole fraction) for `Cc1n[nH]c(=S)s1`
Solution: 0.0194

###

Conditions: in isopropanol, 318.15 K
reportedProperty: solubility (mole fraction)
Provide a numeric answer; units are not to be included.

Exercise: Complete the entry with solubility (mole fraction) for `Cc1n[nH]c(=S)s1`
Solution: 0.0314

Just for reference, BigSolDB 2.1 is where these values come from.
